targetOfAssay: GLP-1R (Homo sapiens)
Construct: host or cells: GLP-1R CRE-bla CHO-K1 cells
Sequence (P43220 24-463): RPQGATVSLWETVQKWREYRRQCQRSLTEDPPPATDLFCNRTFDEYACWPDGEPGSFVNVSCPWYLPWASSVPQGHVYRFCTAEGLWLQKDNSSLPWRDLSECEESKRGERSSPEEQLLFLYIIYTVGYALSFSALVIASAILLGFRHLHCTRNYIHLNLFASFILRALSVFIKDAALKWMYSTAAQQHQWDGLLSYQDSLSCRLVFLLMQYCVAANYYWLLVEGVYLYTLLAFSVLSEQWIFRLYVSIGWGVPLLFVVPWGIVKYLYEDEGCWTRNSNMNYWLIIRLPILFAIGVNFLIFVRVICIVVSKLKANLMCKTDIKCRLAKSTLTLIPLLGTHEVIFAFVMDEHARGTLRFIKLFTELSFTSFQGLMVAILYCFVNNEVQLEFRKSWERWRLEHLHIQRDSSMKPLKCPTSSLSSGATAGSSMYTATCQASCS
Sequence (P01275 100-127 partner limits assumed): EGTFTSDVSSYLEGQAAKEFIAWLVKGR
testProtocol: EC20 GLP-1(9-36) PAM cAMP assay: dose response of compound in the presence of fixed concentration of GLP-1(9-36)
Format: cell-based
experimentalContext: dose response of compound in presence of fixed concentration of GLP-1(9-36), GLP-1R CRE-bla CHO-K1 cells, read-out: EC20 GLP-1(9-36) PAM EC50
pEC50: −log10 of the molar value.
reportedMetric: pEC50

Query block: Query pEC50 for CCCCCCCOc1ccc(-c2cnc(-c3ccc(C[C@H](NC(=O)c4ccc(C(C)(C)C)cc4)C(=O)N[C@@H](CC(=O)NS(C)(=O)=O)C(=O)O)cc3)nc2)cc1
Result block: 5.60 to 6.10

Query block: Query pEC50 for CC(C)(C)CCCOc1ccc(-c2cnc(-c3ccc(C[C@H](NC(=O)c4ccc(C(C)(C)C)s4)C(=O)N4CC(C(=O)O)C4)cc3)nc2)cc1
Result block: > 6.10

Query block: Query pEC50 for CC(C)[C@H]1CC[C@@H](c2ccc(-c3cnc(-c4ccc(C[C@H](NC(=O)c5ccc(C(C)(C)C)s5)C(=O)N5CC(C(=O)O)C5)cc4)nc3)cc2)CC1
Result block: > 6.10

Query block: Query pEC50 for CCCCCCCOc1ccc(-c2cnc(-c3ccc(C[C@H](NC(=O)c4ccc(C(C)(C)C)s4)C(=O)NC(C(=O)O)C(O)c4ccc(OC)cc4)cc3)nc2)cc1 (stereo partly drawn)
Result block: > 6.10

Query block: Query pEC50 for CCCCCCCOc1ccc(-c2cnc(-c3ccc(C[C@H](NC(=O)c4ccc(C(C)(C)C)s4)C(=O)NC(C(=O)O)C(OC)c4ccccc4)cc3)nc2)cc1 (stereo partly drawn)
Result block: 5.60 to 6.10

Query block: Query pEC50 for CCCCCCCOc1ccc(-c2cnc(-c3ccc(C[C@H](NC(=O)c4ccc(C(C)(C)C)cc4)C(=O)N4CCC(C(=O)O)CC4)cc3)nc2)cc1
Result block: 5.30 to 5.60
